- Test system: Escherichia coli TOP10
- Assay Comment: shrunken log2 fold change of peptide-encoding DNA abundance (4.5 h post-induction vs induction); higher = less antimicrobial activity (less host growth inhibition)
- Study Conditions: time post-induction: 4.5 h; library: site-saturation at positions 5, 18, 19, 20
So I've got a bunch of sequences here, and I need their shrunken log2 fold change values.
// return just the number, without any unit appended

Exercise: Bench note: what shrunken log2 fold change did RRIRQRPPRLPRPRPRPPPCPRP show?
Key: 0.393

Exercise: Bench note: what shrunken log2 fold change did RRIRFRPPRLPRPRPRPVPHPRP show?
Key: -0.342

Exercise: Bench note: what shrunken log2 fold change did RRIRNRPPRLPRPRPRPMRDPRP show?
Key: -0.00169

Exercise: Bench note: what shrunken log2 fold change did RRIRIRPPRLPRPRPRPITAPRP show?
Key: -0.592

Exercise: Bench note: what shrunken log2 fold change did RRIRTRPPRLPRPRPRPCYAPRP show?
Key: -0.215

Exercise: Bench note: what shrunken log2 fold change did RRIRVRPPRLPRPRPRPPAVPRP show?
Key: 0.523

Exercise: Bench note: what shrunken log2 fold change did RRIRQRPPRLPRPRPRPRRHPRP show?
Key: -0.0734

Exercise: Bench note: what shrunken log2 fold change did RRIRSRPPRLPRPRPRPQRKPRP show?
Key: 0.264

Exercise: Bench note: what shrunken log2 fold change did RRIRARPPRLPRPRPRPWTWPRP show?
Key: -0.327

Exercise: Bench note: what shrunken log2 fold change did RRIRIRPPRLPRPRPRPFGAPRP show?
Key: -0.143

Exercise: Bench note: what shrunken log2 fold change did RRIRRRPPRLPRPRPRPGKDPRP show?
Key: -0.0528

Exercise: Bench note: what shrunken log2 fold change did RRIRFRPPRLPRPRPRPQDLPRP show?
Key: -0.0337

----------
- Test system: Escherichia coli TOP10;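 also: peptides expressed intracellularly from a pBAD plasmid library in pooled LB shake-flask culture, induced with 0.3% L-arabinose, DNA abundance read by NGS, three biological replicates, DESeq2 with apeglm shrinkage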
- Assay Comment: shrunken log2 fold change of peptide-encoding DNA abundance (4.5 h post-induction vs induction); higher = less antimicrobial activity (less host growth inhibition)
- Study Conditions: time post-induction: 4.5 h; library: site-saturation at positions 5, 18, 19, 20
So I've got a bunch of sequences here, and I need their shrunken log2 fold change values.
// return just the number, without any unit appended

Exercise: Bench note: what shrunken log2 fold change did RRIRMRPPRLPRPRPRPVFVPRP show?
Key: 0.0672

Exercise: Bench note: what shrunken log2 fold change did RRIRARPPRLPRPRPRPGGYPRP show?
Key: 0.116

Exercise: Bench note: what shrunken log2 fold change did RRIRCRPPRLPRPRPRPGPLPRP show?
Key: 0.213

Exercise: Bench note: what shrunken log2 fold change did RRIRTRPPRLPRPRPRPRMAPRP show?
Key: 0.288

Exercise: Bench note: what shrunken log2 fold change did RRIRWRPPRLPRPRPRPPTNPRP show?
Key: 0.433

Exercise: Bench note: what shrunken log2 fold change did RRIRCRPPRLPRPRPRPCHYPRP show?
Key: -0.403

Exercise: Bench note: what shrunken log2 fold change did RRIRARPPRLPRPRPRPDRVPRP show?
Key: -0.0545

Exercise: Bench note: what shrunken log2 fold change did RRIRRRPPRLPRPRPRPTFPPRP show?
Key: 0.444

Exercise: Bench note: what shrunken log2 fold change did RRIRVRPPRLPRPRPRPKFSPRP show?
Key: 0.0178
